test: protein stability index of a GFP-peptide fusion (yeast GPS) (PSI 1-4); higher = more stable; sorted into four equal gates, so the index is relative within each strain; conditions: pdr5∆
Given measured protein stability index, output yes if it is greater than or equal to 3 and no if not.

Consider the following illustrative entries.
{"sequence_code": "QVNIRFLLHNSEIIDTN [SRB8]", "answer_label": "no"}
{"sequence_code": "NESFNRRISSMPGGYFH [YAR002W/NUP60]", "answer_label": "yes"}
{"sequence_code": "TLEDALRRIITDLNQDS [GRR1]", "answer_label": "no"}
{"sequence_code": "GTCNGDITTSIMDNFLE [RPN1]", "answer_label": "no"}
{"sequence_code": "ELLRLANEQLKLFNRIV [CSN12]", "answer_label": "no"}

Now look at this one.
INPUT: Is it the case that QWMVSLFNNHLNGILAD [SNF2] has protein stability index reaching or exceeding 3?
OUTPUT: no

###

experiment: protein stability index of a GFP-peptide fusion (yeast GPS) (PSI 1-4); higher = more stable; sorted into four equal gates, so the index is relative within each strain; conditions: ubr1∆
Given measured protein stability index, output y if it is greater than or equal to 3 and n if not.

Consider the following illustrative entries.
{"sequence_code": "YMRLWEINETEFIRCGC [RMP1]", "answer_label": "y"}
{"sequence_code": "TLEDALRRIITDLNQDS [GRR1]", "answer_label": "n"}
{"sequence_code": "KVTLNKETQQYELEFDT [BRR2]", "answer_label": "y"}

INPUT: Is it the case that SSGFNEDIVGALRRRVG [REC8] has protein stability index reaching or exceeding 3?
OUTPUT: n

INPUT: Is it the case that FYKNKYSSKPYKVDNMT [RPN2] has protein stability index reaching or exceeding 3?
OUTPUT: n

INPUT: Is it the case that SLSEGCDILVATPGRLI [PRP28] has protein stability index reaching or exceeding 3?
OUTPUT: y

###

experiment: protein stability index of a GFP-peptide fusion (yeast GPS) (PSI 1-4); higher = more stable; sorted into four equal gates, so the index is relative within each strain; conditions: san1∆
measurement_label: protein stability index
API doc: respond with a numeric literal and nothing else, no unit.

Consider the worked cases shown below.
{"sequence_code": "IEPELFNGYNPEKKEMI [FAS2]", "protein stability index": 3.33}
{"sequence_code": "QDKDAIRKQPDDIINND [SIR2]", "protein stability index": 2.82}
{"sequence_code": "QEVTNEAPFLTSGTSSE [GAL11]", "protein stability index": 3.42}

INPUT: # lookup: protein stability index of VKGRENELLLPSELNQL [RPC82]
OUTPUT: 3.35

INPUT: # lookup: protein stability index of RPPVKAILQEKILSILN [ECM29]
OUTPUT: 1.71

INPUT: # lookup: protein stability index of TNFSPTPANNGENAAEK [SNF2]
OUTPUT: 2.21

INPUT: # lookup: protein stability index of KIVVVRAEALNISGEFF [RPL16B]
OUTPUT: 2.56

INPUT: # lookup: protein stability index of LLVLLQDVIKVLYQSNA [SWP82]
OUTPUT: 1.72

INPUT: # lookup: protein stability index of GDIESLFEQLQTVSNKE [SRP54]
OUTPUT: 3.18

INPUT: # lookup: protein stability index of DQIEKLREVVELPLLSP [RPT1]
OUTPUT: 2.87

INPUT: # lookup: protein stability index of LSDRANKNQDAFEAELS [ARP9]
OUTPUT: 3.04

###

The reader will find reported protein stability index values listed item by item below.
experiment: protein stability index of a GFP-peptide fusion (yeast GPS) (PSI 1-4); higher = more stable; sorted into four equal gates, so the index is relative within each strain; settings: pdr5∆
API doc: respond with a numeric literal and nothing else, no unit.

Consider the worked cases shown below.
{"sequence_code": "SFLESVIRDSVTYTEHA [HHF1]", "reported_measurement": 2.29}
{"sequence_code": "HIEKLENEFVVLLDARD [CDC53]", "reported_measurement": 3.05}
{"sequence_code": "SMPLEQLIPIILRQRGP [SRB4]", "reported_measurement": 2.31}

Here's the next entry for you.
INPUT: # lookup: protein stability index of LAKILARSIDVEKGVNP [ECM29]
OUTPUT: 1.21

###

assay: protein stability index of a GFP-peptide fusion (yeast GPS) (PSI 1-4); higher = more stable; sorted into four equal gates, so the index is relative within each strain; settings: pdr5∆
measurement_label: protein stability index
API doc: respond with a numeric literal and nothing else, no unit.

Consider the worked cases shown below.
{"sequence_code": "IRSERFKVARELKTEAA [ITC1]", "protein stability index": 2.25}
{"sequence_code": "NSIDINYKGLPKKYKEN [SMC1]", "protein stability index": 3.16}
{"sequence_code": "SLAVRSLQDRSSLVRRN [YCS4]", "protein stability index": 2.71}
{"sequence_code": "VEECPQYIRTLVSEART [SSN8]", "protein stability index": 1.7}
{"sequence_code": "RNEQVTIELKNGTTVWG [SMD1]", "protein stability index": 1.78}

INPUT: # lookup: protein stability index of KNTELSYDFLPLSNIKA [RPN12]
OUTPUT: 2.85

INPUT: # lookup: protein stability index of SEDHSFRKIKLRVDEVQ [RPS1A]
OUTPUT: 3.16

INPUT: # lookup: protein stability index of DDRYGYQLYTSNPSGNY [PRE9]
OUTPUT: 2.97

INPUT: # lookup: protein stability index of VLEFCKDYEAKTKAMSL [POP1]
OUTPUT: 2.67

INPUT: # lookup: protein stability index of YNNNTIRKLLEKINRMI [CSI1]
OUTPUT: 2.79

###

test: protein stability index of a GFP-peptide fusion (yeast GPS) (PSI 1-4); higher = more stable; sorted into four equal gates, so the index is relative within each strain; details: san1∆
measurement_label: protein stability index
API doc: respond with a numeric literal and nothing else, no unit.

{"sequence_code": "KYYLEESNVNDSDMLTK [NUT1]", "measurement_label": "protein stability index", "reported_measurement": 3.31}
{"sequence_code": "TCGSKGSTLNVSQMVAV [RPO31]", "measurement_label": "protein stability index", "reported_measurement": 2.91}
{"sequence_code": "SRRTVNKEMETQRIMTN [YLR018C/POM34]", "measurement_label": "protein stability index", "reported_measurement": 3.22}

INPUT: # lookup: protein stability index of KSVRILKNKAEYLKNCP [RPC40]
OUTPUT: 3.12

INPUT: # lookup: protein stability index of ALFFDPSLNPIPHFIDN [PRP8]
OUTPUT: 2.47

###

test: protein stability index of a GFP-peptide fusion (yeast GPS) (PSI 1-4); higher = more stable; sorted into four equal gates, so the index is relative within each strain; conditions: san1∆
The reader will find reported protein stability index values listed item by item below.

Consider the worked cases shown below.
{"sequence_code": "TLSHLRRTNTPIGRDGK [RPB2]", "measurement_label": "protein stability index", "reported_measurement": 2.24}
{"sequence_code": "TSNASMNTTLGSIGSRK [YAR002W/NUP60]", "measurement_label": "protein stability index", "reported_measurement": 3.37}
{"sequence_code": "EIFDVTSNGLKKNPNWL [FAS1]", "measurement_label": "protein stability index", "reported_measurement": 2.64}
{"sequence_code": "MAPNTSRKQKIAKTFTV [RPL22A]", "measurement_label": "protein stability index", "reported_measurement": 2.61}
{"sequence_code": "NSITKDNIDYAPMRLAT [YJL039C/NUP192]", "measurement_label": "protein stability index", "reported_measurement": 2.71}
{"sequence_code": "NSESTTQGGNVNLDNTA [RPT5]", "measurement_label": "protein stability index", "reported_measurement": 3.27}
{"sequence_code": "PRLEKLINEILLKSNDP [RGR1]", "measurement_label": "protein stability index", "reported_measurement": 1.75}
{"sequence_code": "AFVKDMQVYLVPIERVA [RPC37]", "measurement_label": "protein stability index", "reported_measurement": 1.39}

INPUT: # lookup: protein stability index of TRNSLGNVIQFIYGEDG [RPO21]
OUTPUT: 3.25

INPUT: # lookup: protein stability index of VAPFMIKYEFNGIPLKS [YMR129W/POM152]
OUTPUT: 2.38

INPUT: # lookup: protein stability index of LEKTSRILNFFDKNTKT [YMR153W/NUP53]
OUTPUT: 2.75

INPUT: # lookup: protein stability index of SIMPDLYFYRNPEEVEQ [RPS0B]
OUTPUT: 2.94

INPUT: # lookup: protein stability index of DYIKDEQRHLKRELKRA [RPT3]
OUTPUT: 1.98

INPUT: # lookup: protein stability index of ASAASEAIRDPKNSSSP [SSN8]
OUTPUT: 2.46

INPUT: # lookup: protein stability index of LLKEKPNALKPLSESLR [RRP6]
OUTPUT: 2.91

INPUT: # lookup: protein stability index of ESSNEAKKTIQNPLNKS [SIR4]
OUTPUT: 2.95

INPUT: # lookup: protein stability index of TTFEYIIKERALLSKVK [SNF2]
OUTPUT: 1.41

INPUT: # lookup: protein stability index of NGQPLNQNFSLTFQPQQ [GRR1]
OUTPUT: 3.04

INPUT: # lookup: protein stability index of TRNSNNLAIVELVRLLI [BRR2]
OUTPUT: 2.53

The origin of these recorded values is the supplement of paper PMC9732359.
